experiment: CellTiter-Glo toxicity in mock-infected neural stem cells; conditions: human
measuredEndpoint: CC50 at 72 h

(Q) Need CC50 at 72 h, item CC(C)OC(=O)[C@H](C)N[P@](=O)(OC[C@H]1O[C@@H](n2ccc(=O)[nH]c2=O)[C@](C)(F)[C@@H]1O)Oc1ccccc1 [Sofosbuvir, reference compound]
(A) > 50 µM

* * *

Each record here notes measured CC50.
test system: human neural stem cells; assay: CellTiter-Glo toxicity in mock-infected neural stem cells; conditions: mock-infected neural stem cells, 72 h, CellTiter-Glo, ± SE, n = 4

* COC1C(O)C(COP(=O)(NC(C)C(=O)OC(C)C)Oc2ccccc2)OC1n1ccc(N)nc1=O (stereo not shown) | > 50 µM

(Q) Need CC50, item CC(C)OC(=O)C(C)NP(=O)(OCC1OC(n2ccc(=O)[nH]c2=O)C(C)(O)C1O)Oc1ccccc1 (stereo not shown)
(A) 47 µM

(Q) Need CC50, item COC1C(COP(=O)(NC(C)C(=O)OC(C)C)Oc2ccccc2)OC(n2ccc(=O)[nH]c2=O)C1O (stereo not shown)
(A) > 50 µM

(Q) Need CC50, item CC(C)OC(=O)C(C)NP(=O)(OCC1CC(O)C(n2ccc(N)nc2=O)O1)Oc1ccccc1 (stereo not shown)
(A) > 50 µM

meta.source: paper PMC6521205
